- Experimental Target: EPHB4 (Homo sapiens)
- Construct: purchased Eurofins DiscoverX KINOMEscan (scanTK)
- Sequence (P54760 16-987): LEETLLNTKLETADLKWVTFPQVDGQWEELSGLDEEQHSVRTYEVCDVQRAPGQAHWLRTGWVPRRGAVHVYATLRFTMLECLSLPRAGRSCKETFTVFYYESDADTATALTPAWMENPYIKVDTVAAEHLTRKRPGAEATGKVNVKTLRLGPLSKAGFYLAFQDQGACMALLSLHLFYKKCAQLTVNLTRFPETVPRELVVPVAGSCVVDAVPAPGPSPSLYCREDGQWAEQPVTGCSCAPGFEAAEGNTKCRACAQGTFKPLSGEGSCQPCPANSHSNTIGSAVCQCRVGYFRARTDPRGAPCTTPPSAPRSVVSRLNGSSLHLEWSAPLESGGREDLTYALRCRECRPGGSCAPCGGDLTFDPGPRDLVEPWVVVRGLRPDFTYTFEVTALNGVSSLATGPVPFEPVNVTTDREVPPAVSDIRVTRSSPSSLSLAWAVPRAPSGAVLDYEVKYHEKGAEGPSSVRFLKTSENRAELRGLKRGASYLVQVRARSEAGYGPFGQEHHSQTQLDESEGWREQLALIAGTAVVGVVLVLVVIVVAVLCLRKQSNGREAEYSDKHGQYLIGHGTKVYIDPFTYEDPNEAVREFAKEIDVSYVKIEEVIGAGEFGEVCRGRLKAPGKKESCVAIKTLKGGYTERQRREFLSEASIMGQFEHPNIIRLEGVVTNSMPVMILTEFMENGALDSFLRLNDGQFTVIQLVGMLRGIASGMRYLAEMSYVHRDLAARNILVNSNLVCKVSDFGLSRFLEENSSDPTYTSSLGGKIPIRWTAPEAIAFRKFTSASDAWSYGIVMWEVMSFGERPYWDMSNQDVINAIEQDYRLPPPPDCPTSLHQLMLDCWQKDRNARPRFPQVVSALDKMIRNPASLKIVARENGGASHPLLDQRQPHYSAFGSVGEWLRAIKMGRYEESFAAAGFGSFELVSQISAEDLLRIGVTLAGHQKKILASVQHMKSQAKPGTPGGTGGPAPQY
- Experiment Description: KINOMEscan ScanTK
- Assay type: binding
- Assay Setup: @1000nM, read-out: %Control
Measure: remaining binding at 1 µM

Some solved cases for reference:
Determine reported remaining binding at 1 µM for CCOC(=O)c1cnc(S(C)(=O)=O)nc1N1CCC[C@@H](n2nc(-c3ccc(Oc4ccccc4)cc3)c3c(N)ncnc32)C1 ; test system: EPHB4 (Homo sapiens).
86%

Quote EPHB4 (Homo sapiens) remaining binding at 1 µM for entry COC(=O)c1cnc(S(C)(=O)=O)nc1N1CCCC(n2nc(-c3ccc(Oc4ccccc4)cc3)c3c(N)ncnc32)C1 (centres unmarked) .
98%

Please report the measured remaining binding at 1 µM for Cc1cnc(S(C)(=O)=O)nc1N1CCCC(n2nc(-c3ccc(Oc4ccccc4)cc3)c3c(N)ncnc32)C1 (centres unmarked) tested on EPHB4 (Homo sapiens).
100%

State measured remaining binding at 1 µM of the compound C=CC(=O)N1CCC[C@@H](n2nc(-c3ccc(Oc4ccccc4)cc3)c3c(N)ncnc32)C1 [Compound 1g, Ibrutinib, reference compound] with EPHB4 (Homo sapiens).
100%

Continuing:
State the measured remaining binding at 1 µM (EPHB4 (Homo sapiens)) of CNC(=O)c1cnc(S(C)(=O)=O)nc1N1CCCC(n2nc(-c3ccc(Oc4ccccc4)cc3)c3c(N)ncnc32)C1 (centres unmarked)
100%

These data points were gathered from paper PMC11345841.
